Taken from patent US9969775B2.

# SYSTEM NAME: hCGRP receptor (CALCRL:RAMP1) (Homo sapiens, UniProt O60894+Q16602)
# Construct: host or cells: GeneBLAzer CALCRL:RAMP1-CRE-bla Freestyle 293F
# Sequence (Q16602 23-461): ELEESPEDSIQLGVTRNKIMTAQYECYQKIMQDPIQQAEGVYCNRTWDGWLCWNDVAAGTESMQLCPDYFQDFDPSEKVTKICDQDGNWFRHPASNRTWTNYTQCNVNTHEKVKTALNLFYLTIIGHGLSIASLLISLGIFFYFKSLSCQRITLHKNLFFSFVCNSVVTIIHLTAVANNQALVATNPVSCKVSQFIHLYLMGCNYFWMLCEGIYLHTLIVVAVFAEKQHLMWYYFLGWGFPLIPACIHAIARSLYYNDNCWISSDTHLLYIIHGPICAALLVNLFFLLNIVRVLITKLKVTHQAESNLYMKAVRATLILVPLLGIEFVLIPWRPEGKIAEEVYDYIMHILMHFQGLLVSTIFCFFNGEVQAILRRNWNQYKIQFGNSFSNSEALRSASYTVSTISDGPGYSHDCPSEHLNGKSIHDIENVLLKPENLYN
# Sequence (O60894 27-148): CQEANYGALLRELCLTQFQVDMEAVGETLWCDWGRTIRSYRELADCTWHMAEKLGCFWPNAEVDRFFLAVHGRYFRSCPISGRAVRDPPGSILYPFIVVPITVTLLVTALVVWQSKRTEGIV
# ASSAY INFO: CGRP receptor antagonist activity measured by cAMP assay (HTRF)
# Type: cell-based
# DETAILS: % MPE: percent of the maximal possible effect; agonist human α-CGRP; read-out: hCGRP-R Efficacy Antag (%) Ave
Numbered stars: 1 amine (or outer) side, 2 acyl side, 3 side chain; on linkers, the order of the positions; unused ones are H or OH. Bridge positions count the residues as written; N and C are the ends. Square brackets hold non-standard residues; d marks the D form. Peptide text beside a SMILES is read from it. * marks the point of attachment. Phe(3-CH2NH2) = O=C([C@H](Cc1cccc(CN[*:3])c1)N[*:1])[*:2]; Phe(3-CONH2) = NC(=O)c1cccc(C[C@H](N)C(=O)O)c1; Phe(2-CONH2) = NC(=O)c1ccccc1C[C@H](N)C(=O)O; X5 = O=C([C@H](Cc1ccc(CO)cc1)N[*:1])[*:2]; Arg(Me) = CNC(=N)NCCC[C@H](N)C(=O)O; Picolinoyl(5-F) = O=C(c1ccc(F)cn1)*; Lys(Me2) = CN(C)CCCC[C@H](N)C(=O)O; Orn(iPr) = CC(C)NCCC[C@H](N)C(=O)O; Benzoyl(4-F) = O=C(c1ccc(F)cc1)*; Oxazole2carbonyl = O=C(c1ncco1)*; 3Pal = N[C@@H](Cc1cccnc1)C(=O)O; Agp = N=C(N)NC[C@H](N)C(=O)O; Picolinoyl = O=C(c1ccccn1)*; ΔPro = O=C(O)[C@@H]1C=CCN1; Orn = NCCC[C@H](N)C(=O)O; X10 = O=C(c1nccs1)*
Examples of compounds with documented Emax follow.
Report as a plain number; the unit % is understood.

Study these solved cases before continuing.
Enquiry: Would you mind telling me what Emax value was observed for CNC(=N)NCCC[C@@H]1NC(=O)[C@@H](NC(=O)[C@H](Cc2ccc(O)cc2)NC(=O)[C@H](NC(=O)c2ccccn2)C(C)C)CSSC[C@@H](C(=O)N[C@@H](Cc2cccnc2)C(N)=O)NC(=O)[C@H](Cc2ccccc2)NC(=O)[C@@H]2CCCN2C(=O)CNC(=O)[C@H](C(C)C)NC(=O)[C@H](CC(=O)O)NC1=O [Compound 28] (Picolinoyl-[dV]YC[Arg(Me)]DVGPFC[3Pal]-NH2; disulfide 3-10) ?
Return: 100

Enquiry: Can you handle CC(C)[C@@H]1NC(=O)[C@H](CC(=O)O)NC(=O)[C@H](CCCN)NC(=O)[C@@H](NC(=O)[C@H](Cc2ccc(O)cc2)NC(=O)[C@H](NC(=O)c2ccc(F)cn2)C(C)C)CSSC[C@@H](C(=O)N[C@@H](Cc2cccnc2)C(N)=O)NC(=O)[C@H](Cc2ccc(CO)cc2)NC(=O)[C@@H]2CCCN2C(=O)CNC1=O [Compound 56] ({Picolinoyl(5-F)}-[dV]YC[Orn]DVGP[X5]C[3Pal]-NH2; disulfide 3-10) next?
Return: 100

Enquiry: Can you handle CC(C)NCCC[C@@H]1NC(=O)[C@@H](NC(=O)[C@H](Cc2ccc(O)cc2)NC(=O)[C@H](NC(=O)c2ncco2)C(C)C)CSSC[C@@H](C(=O)N[C@@H](Cc2cccnc2)C(N)=O)NC(=O)[C@H](Cc2cccc(C(N)=O)c2)NC(=O)[C@@H]2C=CCN2C(=O)CNC(=O)[C@H](C(C)C)NC(=O)[C@H](CC(=O)O)NC1=O [Compound 67] (Oxazole2carbonyl-[dV]YC[Orn(iPr)]DVG[ΔPro][Phe(3-CONH2)]C[3Pal]-NH2; disulfide 3-10) next?
Return: 101

Enquiry: Can you handle CC(C)[C@@H]1NC(=O)[C@H](CC(=O)O)NC(=O)[C@H](CCCNC(=N)N)NC(=O)[C@@H](NC(=O)[C@H](Cc2ccc(O)cc2)NC(=O)[C@H](NC(=O)c2ccc(F)cc2)C(C)C)CSSC[C@@H](C(=O)N[C@@H](Cc2cccnc2)C(N)=O)NC(=O)[C@H](Cc2cccc(CN)c2)NC(=O)[C@@H]2CCCN2C(=O)CNC1=O [Compound 5] ({Benzoyl(4-F)}-[dV]YCRDVGP[Phe(3-CH2NH2)]C[3Pal]-NH2; disulfide 3-10) next?
Return: 100

Enquiry: Can you handle CC(C)[C@@H]1NC(=O)[C@H](CC(=O)O)NC(=O)[C@H](CCCNC(=O)[C@@H](N)CCCCN(C)C)NC(=O)[C@@H](NC(=O)[C@H](Cc2ccc(O)cc2)NC(=O)[C@H](NC(=O)c2ncco2)C(C)C)CSSC[C@@H](C(=O)N[C@@H](Cc2cccnc2)C(N)=O)NC(=O)[C@H](Cc2ccccc2)NC(=O)[C@@H]2CCCN2C(=O)CNC1=O [Compound 44] (Oxazole2carbonyl-[dV]YC[Orn](Lys(Me2))DVGPFC[3Pal]-NH2; disulfide 3-10) next?
Return: 100

Enquiry: Can you handle CC(C)NCCC[C@@H]1NC(=O)[C@@H](NC(=O)[C@H](Cc2ccccc2C(N)=O)NC(=O)[C@H](NC(=O)c2ncco2)C(C)C)CSSC[C@@H](C(=O)N[C@@H](Cc2cccnc2)C(N)=O)NC(=O)[C@H](Cc2cccc(C(N)=O)c2)NC(=O)[C@@H]2C=CCN2C(=O)CNC(=O)[C@H](C(C)C)NC(=O)[C@H](CC(=O)O)NC1=O [Compound 65] (Oxazole2carbonyl-[dV][Phe(2-CONH2)]C[Orn(iPr)]DVG[ΔPro][Phe(3-CONH2)]C[3Pal]-NH2; disulfide 3-10) next?
Return: 101

Continuing:
Enquiry: Would you mind telling me what Emax value was observed for CC(C)[C@@H]1NC(=O)[C@H](CC(=O)O)NC(=O)[C@H](CCCNC(=N)N)NC(=O)[C@@H](NC(=O)[C@H](Cc2ccc(O)cc2)NC(=O)[C@H](NC(=O)c2nccs2)C(C)C)CSSC[C@@H](C(=O)N[C@@H](Cc2cccnc2)C(N)=O)NC(=O)[C@H](Cc2ccccc2)NC(=O)[C@@H]2CCCN2C(=O)CNC1=O [Compound 33] (X10-[dV]YCRDVGPFC[3Pal]-NH2; disulfide 3-10) ?
Return: 100

Enquiry: Can you handle CC(C)[C@@H]1NC(=O)[C@H](CC(=O)O)NC(=O)[C@H](CNC(=N)N)NC(=O)[C@@H](NC(=O)[C@H](Cc2ccc(O)cc2)NC(=O)[C@H](NC(=O)c2ccc(F)cc2)C(C)C)CSSC[C@@H](C(=O)N[C@@H](Cc2cccnc2)C(N)=O)NC(=O)[C@H](Cc2ccccc2)NC(=O)[C@@H]2CCCN2C(=O)CNC1=O [Ref. Cpd. 1, reference compound] ({Benzoyl(4-F)}-[dV]YC[Agp]DVGPFC[3Pal]-NH2; disulfide 3-10) next?
Return: 100

====

Examples of compounds with documented Emax follow.
# SYSTEM NAME: hCGRP receptor (CALCRL:RAMP1) (Homo sapiens, UniProt O60894+Q16602)
# Construct: host or cells: GeneBLAzer CALCRL:RAMP1-CRE-bla Freestyle 293F
# ASSAY INFO: CGRP receptor antagonist activity measured by cAMP assay (HTRF)
# Format: cell-based
# DETAILS: % MPE: percent of the maximal possible effect; agonist human α-CGRP; read-out: hCGRP-R Efficacy Antag (%) Ave
Numbered stars: 1 amine (or outer) side, 2 acyl side, 3 side chain; on linkers, the order of the positions; unused ones are H or OH. Bridge positions count the residues as written; N and C are the ends. Square brackets hold non-standard residues; d marks the D form. Peptide text beside a SMILES is read from it. * marks the point of attachment. Phe(3-CH2NH2) = O=C([C@H](Cc1cccc(CN[*:3])c1)N[*:1])[*:2]; Phe(2-CONH2) = NC(=O)c1ccccc1C[C@H](N)C(=O)O; 3Pal = N[C@@H](Cc1cccnc1)C(=O)O; ΔPro = O=C(O)[C@@H]1C=CCN1; X1 = O=C(c1ncccc1F)*
Report as a plain number; the unit % is understood.

Enquiry: Item CC(C)[C@@H]1NC(=O)[C@H](CC(=O)O)NC(=O)[C@H](CCCNC(=N)N)NC(=O)[C@@H](NC(=O)[C@H](Cc2ccccc2C(N)=O)NC(=O)[C@H](NC(=O)c2ncccc2F)C(C)C)CSSC[C@@H](C(=O)N[C@@H](Cc2cccnc2)C(N)=O)NC(=O)[C@H](Cc2cccc(CN)c2)NC(=O)[C@@H]2C=CCN2C(=O)CNC1=O [Compound 32] (X1-[dV][Phe(2-CONH2)]CRDVG[ΔPro][Phe(3-CH2NH2)]C[3Pal]-NH2; disulfide 3-10) with hCGRP receptor (CALCRL:RAMP1) (Homo sapiens, UniProt O60894+Q16602) - Emax?
Return: 100

Continuing:
Enquiry: Item CC(C)[C@@H]1NC(=O)[C@H](CC(=O)O)NC(=O)[C@H](CCCNC(=N)N)NC(=O)[C@@H](NC(=O)[C@H](Cc2ccc(O)cc2)NC(=O)[C@H](NC(=O)c2ncccc2F)C(C)C)CSSC[C@@H](C(=O)N[C@@H](Cc2cccnc2)C(N)=O)NC(=O)[C@H](Cc2ccccc2)NC(=O)[C@@H]2CCCN2C(=O)CNC1=O [Compound 17] (X1-[dV]YCRDVGPFC[3Pal]-NH2; disulfide 3-10) with hCGRP receptor (CALCRL:RAMP1) (Homo sapiens, UniProt O60894+Q16602) - Emax?
Return: 100
